Provenance of the data: ChEMBL document CHEMBL2396606

experiment description: AUC (0 to infinity) in Sprague-Dawley rat at 10 mg/kg, po
Assay type: ADME, organism-based
Set-up: time infinity, dose 10 mg/kg, route oral
measurement context: plasma
experimental endpoint: AUC(0-inf) (µM·h)
Please state the figure in µM·h; there is no need to write the unit.

Query: I have this compound here, N#Cc1c(-c2ccc(S(=O)(=O)NC(CF)CF)cn2)n(C2CCC2)c2cc(OC(F)F)ccc12 , and I need its recorded AUC(0-inf).
Response: 16

###

experiment description: AUC (0 to infinity) in Sprague-Dawley rat at 5 mg/kg, iv
Format: ADME, organism-based
Set-up: time infinity, dose 5 mg/kg, route intravenous
measurement context: plasma
experimental endpoint: AUC(0-inf)

Query: Would you kindly share the measured AUC(0-inf) for N#Cc1c(-c2ccc(S(=O)(=O)NC(CF)CF)cn2)n(C2CCC2)c2cc(OC(F)F)ccc12 ?
Response: 13 µM·h

###

experiment description: Tmax in Sprague-Dawley rat at 10 mg/kg, po
Assay type: ADME, organism-based
Parameters: dose 10 mg/kg, route oral
measurement context: in vivo
experimental endpoint: Tmax (h)
The answer is to be given in h; state only the numeric part.

Worked examples, 3 compounds total:
> print(dat)
                                chem.smiles  experimental.endpoint  observed.measurement
1  CC(C)NS(=O)(=O)c1ccc(-c2c(C#N)c3ccc(C4CC4)cc3n2C2CCC2)nc1                   Tmax                     2
2  N#Cc1c(-c2ccc(S(=O)(=O)NC(CF)CF)cn2)n(C2CCC2)c2cc(OC(F)F)ccc12                   Tmax                     3
3  CC(C)NS(=O)(=O)c1ccc(-c2c(C#N)c3ccc(OC(F)F)cc3n2C2CCC2)nc1                   Tmax                     2

Now let's try a different one.
Query: Value lookup for Tmax; key = N#Cc1c(-c2ccc(S(=O)(=O)NC(CF)CF)cn2)n(C2CCC2)c2cc(C3CC3)ccc12
Response: 2

###

Quick reference for Cmax among some molecules
experiment description: Cmax in Sprague-Dawley rat at 10 mg/kg, po
Assay type: ADME, organism-based
Design: dose 10 mg/kg, route oral
measurement context: in vivo
Please state the figure in ng/mL; there is no need to write the unit.

Field: example entries. Status: answers known.
> print(dat)
                                chem.smiles  experimental.endpoint  observed.measurement
1  N#Cc1c(-c2ccc(S(=O)(=O)NC(CF)CF)cn2)n(C2CCC2)c2cc(C3CC3)ccc12                   Cmax                   759
2  CC(C)NS(=O)(=O)c1ccc(-c2c(C#N)c3ccc(C4CC4)cc3n2C2CCC2)nc1                   Cmax                    87
3  CC(C)NS(=O)(=O)c1ccc(-c2c(C#N)c3ccc(OC(F)F)cc3n2C2CCC2)nc1                   Cmax                    53

Continue with the next molecule.
Query: State the recorded Cmax for this entry: N#Cc1c(-c2ccc(S(=O)(=O)NC(CF)CF)cn2)n(C2CCC2)c2cc(OC(F)F)ccc12
Response: 348
